Below, each entry is listed with its recorded Activity.
tested on: A549; assay: Antitumor activity against human A549/ATCC cells assessed as reduction of cell growth at 10 uM after 48 hrs by SRB assay; assay type: functional; parameters: scale not given: the % may be the effect or the level left
ASSAY ENDPOINT: Activity

- C[C@]12CCC(=O)C(N)=C1C=C[C@@H]1[C@@H]2CC[C@]2(C)C(=O)CC[C@@H]12.Cl: 103.34%
- C[C@]12CCC(=O)C(Oc3ccccc3)=C1CC[C@@H]1[C@@H]2CC[C@]2(C)C(=O)CC[C@@H]12: 100.25%
- C[C@]12CC[C@H]3[C@@H](CCC4=CC(=O)CC[C@@]43CF)[C@@H]1CCC2=O: 99.26%
- CCOC1=C2CC[C@@H]3[C@H](CC[C@]4(C)C(=O)CC[C@@H]34)[C@@]2(C)CCC1=O: 97.79%
